The reported numbers originate from patent US20110195494A1.

Each entry below lists one item and its recorded FMAT hDLL4 % inhibition value.
# target of assay: T1, full length human DLL4 on overexpressing CHO or HEK293 cells (human, UniProt Q9NR61 27-685)
# T1 construct: also called CHO-hDLL4; HEK293-hDII4
# T1 sequence (Q9NR61 27-685 limits assumed): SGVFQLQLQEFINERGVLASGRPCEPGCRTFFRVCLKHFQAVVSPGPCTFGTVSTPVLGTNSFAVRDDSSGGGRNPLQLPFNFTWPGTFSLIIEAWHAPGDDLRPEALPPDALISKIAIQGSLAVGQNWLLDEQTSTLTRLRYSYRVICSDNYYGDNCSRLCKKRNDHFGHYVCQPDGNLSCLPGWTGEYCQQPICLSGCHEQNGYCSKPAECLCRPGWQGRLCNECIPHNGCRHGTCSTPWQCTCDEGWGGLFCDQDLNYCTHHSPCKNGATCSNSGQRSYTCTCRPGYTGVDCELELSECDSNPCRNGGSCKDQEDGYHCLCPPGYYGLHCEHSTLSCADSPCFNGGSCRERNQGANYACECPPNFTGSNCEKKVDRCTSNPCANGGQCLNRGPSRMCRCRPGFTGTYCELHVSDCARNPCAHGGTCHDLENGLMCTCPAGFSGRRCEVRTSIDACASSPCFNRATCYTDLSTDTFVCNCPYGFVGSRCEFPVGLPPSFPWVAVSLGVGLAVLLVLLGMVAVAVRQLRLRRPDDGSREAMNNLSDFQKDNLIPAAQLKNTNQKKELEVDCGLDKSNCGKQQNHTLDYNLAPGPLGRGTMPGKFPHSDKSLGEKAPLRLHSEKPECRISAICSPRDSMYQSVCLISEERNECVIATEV
# assay info: FMAT, hNotch1/Fc on CHO-hDLL4, periplasmic extract
Give your result in % as a bare value.

- binder: "DLLBII101G08 (VHH, also called DLLBII101G8; 101G8; not shown: C-terminal c-myc tag and His6 tag) VHH: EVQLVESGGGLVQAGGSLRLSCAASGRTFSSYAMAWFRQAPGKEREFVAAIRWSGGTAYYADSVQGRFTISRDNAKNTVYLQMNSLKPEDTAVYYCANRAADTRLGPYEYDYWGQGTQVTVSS"
  FMAT hDLL4 % inhibition, %: 91
- binder: "DLLBII112A04 (VHH, tested as periplasmic extract; also called DLLBII112A4; not shown: C-terminal c-myc tag and His6 tag) VHH: EVQLVESGGGLVQAGGSLRLSCAAFGRTPYGMGWFRQAPGKEREFVAAITSDGSTNYADSVKGRFTISRDNAKNAVSLQMNSLKPEDTAVYYCTAPYYSDFEGTTTEYDYWGQGTQVTVSS"
  FMAT hDLL4 % inhibition, %: 75
- binder: "DLLBII96C03 (VHH, also called DLLBII96C3; DLLBII96CO3; not shown: C-terminal c-myc tag and His6 tag) VHH: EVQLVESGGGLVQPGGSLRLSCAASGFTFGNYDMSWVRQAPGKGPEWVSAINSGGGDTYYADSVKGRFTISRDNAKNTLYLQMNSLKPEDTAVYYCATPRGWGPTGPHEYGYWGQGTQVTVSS"
  FMAT hDLL4 % inhibition, %: 75

Now for the binder whose FMAT hDLL4 % inhibition we want.
Q: Can you look up the measured FMAT hDLL4 % inhibition of DLLBII101H09 (VHH, tested as periplasmic extract; also called DLLBII101H9; not shown: C-terminal c-myc tag and His6 tag) VHH: EVQLVESGGGLVQPGGSLRLSCAASGFTLGYYTIVWFRQAPGKERKGVSCISSRDGSRYYADSVKGRFTISRDNAKNTVYLRMNSLKPEDTAVYYCAAGPDCSSYDYWGQGTQVTVSS for me?
Result: 87
